# method: Cytotoxicity against rat H9c2 cells assessed as decrease in cell viability after 72 hrs by neutral red staining based assay
# Assay type: toxicity
quantity kind: IC50 at 72 h

Previously resolved entries follow.
-- ask Requested field: IC50 at 72 h. Item: CC/C(=N\NC(=O)c1cccnc1)c1ccccc1O
-- reply 7.1 µM

-- ask Requested field: IC50 at 72 h. Item: CC/C(=N\NC(=O)c1ccc(-c2ccccc2)cc1)c1ccccc1O
-- reply > 100 µM

-- ask Requested field: IC50 at 72 h. Item: C/C(=N\NC(=O)c1cccc2ccccc12)c1ccccc1O
-- reply > 200 µM

-- ask Requested field: IC50 at 72 h. Item: C/C(=N\NC(=O)c1cnccn1)c1ccccc1O
-- reply 41.2 µM

-- ask Requested field: IC50 at 72 h. Item: CC/C(=N\NC(=O)c1ccnnc1)c1ccccc1O
-- reply > 200 µM

Now look at this entry.
-- ask Requested field: IC50 at 72 h. Item: O=C(N/N=C/c1ccccc1O)c1ccncc1 [SALINAZID]
-- reply 28.9 µM

----------
# method: Iron chelating activity assessed as Fe2+-compound complex formation at 5 uM measured for 360 secs by calcein based fluorescence assay relative to salicylaldehyde isonicotinoyl hydrazone
# Assay type: physicochemical
# experimental setup: 0.1 h
quantity kind: Activity

-- ask Requested field: Activity. Item: C/C(=N\NC(=O)c1cccc2ccccc12)c1ccccc1O
-- reply 79%

New cases:
-- ask Requested field: Activity. Item: CC/C(=N\NC(=O)c1cccnc1)c1ccccc1O
-- reply 84 to 109%

-- ask Requested field: Activity. Item: C/C(=N\NC(=O)c1ccnnc1)c1ccccc1O
-- reply 97 to 107%

-- ask Requested field: Activity. Item: C/C(=N\NC(=O)c1cccnc1)c1ccccc1O
-- reply 97 to 107%

-- ask Requested field: Activity. Item: CC/C(=N\NC(=O)c1ccnnc1)c1ccccc1O
-- reply 84 to 109%

-- ask Requested field: Activity. Item: CC/C(=N\NC(=O)c1cccc2ccccc12)c1ccccc1O
-- reply 84 to 109%

-- ask Requested field: Activity. Item: C/C(=N\NC(=O)c1ccc(-c2ccccc2)cc1)c1ccccc1O
-- reply 7%

-- ask Requested field: Activity. Item: CC/C(=N\NC(=O)c1ccc(-c2ccccc2)cc1)c1ccccc1O
-- reply 84 to 109%

-- ask Requested field: Activity. Item: C/C(=N\NC(=O)c1cnccn1)c1ccccc1O
-- reply 97 to 107%

-- ask Requested field: Activity. Item: CC/C(=N\NC(=O)c1cnccn1)c1ccccc1O
-- reply 84 to 109%

----------
# method: Antiproliferative activity against rat L8 cells after 22 to 72 hrs by MTT assay
# Type: cell-based
quantity kind: IC50 (µM)
Unit µM implied. Number only.

-- ask Requested field: IC50. Item: O=C(N/N=C/c1c(O)ccc2ccccc12)c1ccncc1
-- reply 5.4

----------
# method: Cytotoxicity against rat H9c2 cells assessed as decrease in cell viability after 72 hrs by neutral red staining based assay
# Assay type: toxicity
quantity kind: IC50 at 72 h (µM)
Unit µM implied. Number only.

Previously resolved entries follow.
-- ask Requested field: IC50 at 72 h. Item: C/C(=N\NC(=O)c1cccnc1)c1ccccc1O
-- reply 6.8

-- ask Requested field: IC50 at 72 h. Item: C/C(=N\NC(=O)c1ccnnc1)c1ccccc1O
-- reply 22.8

New cases:
-- ask Requested field: IC50 at 72 h. Item: C/C(=N\NC(=O)c1ccncc1)c1ccccc1O
-- reply 12.6

----------
# method: Antiproliferative activity against human SK-N-MC cells after 22 to 72 hrs by MTT assay
# Format: functional, cell-based
quantity kind: pIC50
Scale: negative log10 of molar concentration, which is what pIC50 denotes.

-- ask Requested field: pIC50. Item: O=C(N/N=C/c1c(O)ccc2ccccc12)c1ccncc1
-- reply 6.30

----------
# method: Cytotoxicity against human HL60 cells assessed as decrease in cell viability after 72 hrs by MTT assay
# Assay type: functional, cell-based
# experimental setup: HL-60, 72 h
Binary label based on IC50 with cut-off 8 µM: below gives Yes, not below gives No.

-- ask Hi there! Is IC50 for CC/C(=N\NC(=O)c1cnccn1)c1ccccc1O below 8 µM, do you know?
-- reply No

----------
# method: Stability in rabbit plasma assessed as parent compound remaining at 100 uM after 10 hrs by HPLC analysis
# Assay type: ADME, cell-free, Oryctolagus cuniculus
# experimental setup: read-out: Stability
quantity kind: remaining at 10 h, 100 µM
Number first, unit second: that is the form wanted.

-- ask Requested field: remaining at 10 h, 100 µM. Item: CC/C(=N\NC(=O)c1cccc2ccccc12)c1ccccc1O
-- reply 76%

-- ask Requested field: remaining at 10 h, 100 µM. Item: CC/C(=N\NC(=O)c1ccnnc1)c1ccccc1O
-- reply 85%

-- ask Requested field: remaining at 10 h, 100 µM. Item: C/C(=N\NC(=O)c1ccncc1)c1ccccc1O
-- reply 26%

-- ask Requested field: remaining at 10 h, 100 µM. Item: C/C(=N\NC(=O)c1ccc(-c2ccccc2)cc1)c1ccccc1O
-- reply 90%

-- ask Requested field: remaining at 10 h, 100 µM. Item: CC/C(=N\NC(=O)c1ccncc1)c1ccccc1O
-- reply 41%

-- ask Requested field: remaining at 10 h, 100 µM. Item: C/C(=N\NC(=O)c1cccc2ccccc12)c1ccccc1O
-- reply 95%

New cases:
-- ask Requested field: remaining at 10 h, 100 µM. Item: CC/C(=N\NC(=O)c1ccc(-c2ccccc2)cc1)c1ccccc1O
-- reply 41%

----------
# method: Cytotoxicity against human MCF7 cells assessed as decrease in cell viability after 72 hrs by neutral red staining based assay
# Format: functional
# experimental setup: MCF7, 72 h
Binary label based on IC50 with cut-off 5 µM: below gives T, not below gives F.

Look over these answered cases.
-- ask Hi there! Is IC50 for C/C(=N\NC(=O)c1cccnc1)c1ccccc1O below 5 µM, do you know?
-- reply F

-- ask Hi there! Is IC50 for CC/C(=N\NC(=O)c1cnccn1)c1ccccc1O below 5 µM, do you know?
-- reply F

-- ask Hi there! Is IC50 for C/C(=N\NC(=O)c1ccnnc1)c1ccccc1O below 5 µM, do you know?
-- reply F

New cases:
-- ask Hi there! Is IC50 for CC/C(=N\NC(=O)c1ccc(-c2ccccc2)cc1)c1ccccc1O below 5 µM, do you know?
-- reply T

-- ask Hi there! Is IC50 for CC/C(=N\NC(=O)c1cccc2ccccc12)c1ccccc1O below 5 µM, do you know?
-- reply T

-- ask Hi there! Is IC50 for CC/C(=N\NC(=O)c1ccnnc1)c1ccccc1O below 5 µM, do you know?
-- reply F

-- ask Hi there! Is IC50 for C/C(=N\NC(=O)c1cnccn1)c1ccccc1O below 5 µM, do you know?
-- reply F

-- ask Hi there! Is IC50 for C/C(=N\NC(=O)c1ccc(-c2ccccc2)cc1)c1ccccc1O below 5 µM, do you know?
-- reply T

-- ask Hi there! Is IC50 for O=C(N/N=C/c1ccccc1O)c1ccncc1 below 5 µM, do you know?
-- reply F

-- ask Hi there! Is IC50 for CC/C(=N\NC(=O)c1ccncc1)c1ccccc1O below 5 µM, do you know?
-- reply F

-- ask Hi there! Is IC50 for C/C(=N\NC(=O)c1cccc2ccccc12)c1ccccc1O below 5 µM, do you know?
-- reply T

----------
# method: Iron chelating activity assessed as Fe3+-compound complex-induced antioxidant activity by measuring ascorbate oxidation level at iron binding equivalent of 3 measured after 10 to 40 mins in presence of 500 uM of citrate relative to control
# Format: physicochemical
quantity kind: Activity

Previously resolved entries follow.
-- ask Requested field: Activity. Item: C/C(=N\NC(=O)c1cnccn1)c1ccccc1O
-- reply 10 to 44%

-- ask Requested field: Activity. Item: CC/C(=N\NC(=O)c1cccnc1)c1ccccc1O
-- reply 10 to 44%

Now look at this entry.
-- ask Requested field: Activity. Item: C/C(=N\NC(=O)c1cccnc1)c1ccccc1O
-- reply 10 to 44%

----------
# Test system: MCF7
# method: Inhibition of 59Fe uptake in human MCF7 cells labeled with 59Fe transferrin at 25 uM after 3 hrs relative to control
# Assay type: functional
# experimental setup: MCF7, 3 h
quantity kind: inhibition at 25 µM

Previously resolved entries follow.
-- ask Requested field: inhibition at 25 µM. Item: CC/C(=N\NC(=O)c1cccc2ccccc12)c1ccccc1O
-- reply 17 to 61%

-- ask Requested field: inhibition at 25 µM. Item: CC/C(=N\NC(=O)c1ccc(-c2ccccc2)cc1)c1ccccc1O
-- reply 17 to 61%

-- ask Requested field: inhibition at 25 µM. Item: C/C(=N\NC(=O)c1cccc2ccccc12)c1ccccc1O
-- reply 17 to 61%

New cases:
-- ask Requested field: inhibition at 25 µM. Item: CC/C(=N\NC(=O)c1cccnc1)c1ccccc1O
-- reply 17 to 61%

-- ask Requested field: inhibition at 25 µM. Item: CC/C(=N\NC(=O)c1cnccn1)c1ccccc1O
-- reply 17 to 61%

-- ask Requested field: inhibition at 25 µM. Item: C/C(=N\NC(=O)c1cnccn1)c1ccccc1O
-- reply 17 to 61%

-- ask Requested field: inhibition at 25 µM. Item: C/C(=N\NC(=O)c1ccc(-c2ccccc2)cc1)c1ccccc1O
-- reply 17 to 61%

-- ask Requested field: inhibition at 25 µM. Item: O=C(N/N=C/c1ccccc1O)c1ccncc1
-- reply 15%

-- ask Requested field: inhibition at 25 µM. Item: C/C(=N\NC(=O)c1ccnnc1)c1ccccc1O
-- reply 17 to 61%

-- ask Requested field: inhibition at 25 µM. Item: C/C(=N\NC(=O)c1cccnc1)c1ccccc1O
-- reply 17 to 61%

-- ask Requested field: inhibition at 25 µM. Item: CC/C(=N\NC(=O)c1ccnnc1)c1ccccc1O
-- reply 17 to 61%

Data credit: ChEMBL document CHEMBL3856192
